{"COMPOUND": "COC(=O)c1ccc(NC(=S)N2CCN(c3ncnc4cc(OC)c(OC)cc34)CC2)cc1 [Compound 249]", "melting point": "208 to 209 °C"}
{"COMPOUND": "COc1cc2ncnc(N3CCN(C(=S)NC(=O)c4ccc(Cl)cc4)CC3)c2cc1OC [Compound 179]", "melting point": "166 to 168 °C"}
{"COMPOUND": "C=Cc1ccc(NC(=O)N2CCN(c3ncnc4cc(OC)c(OC)cc34)CC2)cc1 [Compound 164]", "melting point": "214 to 216 °C"}
{"COMPOUND": "COc1cc2nc(N3CCOCC3)nc(N3CCN(C(=O)Nc4ccc(Oc5ccccc5)cc4)CC3)c2cc1OC [Compound 393]", "melting point": "114 to 116 °C"}
{"COMPOUND": "CCN(CC)c1ccc(NC(=O)N2CCN(c3ncnc4cc(OC)c(OC)cc34)CC2)cc1 [Compound 225]", "melting point": "221 to 223 °C"}
{"COMPOUND": "COc1cc2ncnc(N3CCN(C(=S)NCc4ccc(Cl)c(Cl)c4)CC3)c2cc1OC [Compound 195]", "melting point": "197 to 200 °C"}
{"COMPOUND": "Cn1c(=O)n(C)c2cc3c(N4CCN(C(=O)Nc5ccc(Oc6ccccc6)cc5)CC4)ncnc3cc21 [Compound 121]", "melting point": "250 to 255 °C"}
{"COMPOUND": "COc1cc2ncnc(N3CCN(C(=S)NCc4ccc(F)cc4)CC3)c2cc1OC [Compound 173]", "melting point": "217 to 218 °C"}

====

This section presents molecules with their documented melting point values.
MEASURED_ENDPOINT: melting point

{"STRUCTURE_NOTATION": "COc1ccc(NC(=O)N2CCN(c3ncnc4cc(OC)c(OC)cc34)CC2)c(OC)c1", "ENDPOINT_VALUE": "187 to 188 °C"}
{"STRUCTURE_NOTATION": "COc1cc2ncnc(N3CCN(C(=S)Nc4cccc(C#N)c4)CC3)c2cc1OC", "ENDPOINT_VALUE": "169 to 170 °C"}
{"STRUCTURE_NOTATION": "O=C(Nc1ccc(Oc2ccccc2)cc1)N1CCN(c2ncnc3ccc(Br)cc23)CC1", "ENDPOINT_VALUE": "169 to 170 °C"}
{"STRUCTURE_NOTATION": "COc1cc2ncnc(N3CCN(C(=O)Nc4ccc(Cl)cc4C(F)(F)F)CC3)c2cc1OC", "ENDPOINT_VALUE": "189 to 190 °C"}
{"STRUCTURE_NOTATION": "S=C(NCc1cccnc1)N1CCN(c2ncnc3ccccc23)CC1", "ENDPOINT_VALUE": "193 to 194 °C"}
{"STRUCTURE_NOTATION": "S=C(NCc1ccccc1)N1CCN(c2ncnc3ccccc23)CC1", "ENDPOINT_VALUE": "68 to 70 °C"}
{"STRUCTURE_NOTATION": "COc1cc2ncnc(N3CCN(C(=O)NCc4ccccc4)CC3)c2cc1OC", "ENDPOINT_VALUE": "167 to 168 °C"}
{"STRUCTURE_NOTATION": "COc1cc2ncnc(N3CCN(C(=S)NCC4(c5ccc(Cl)cc5)CC4)CC3)c2cc1OC", "ENDPOINT_VALUE": "108 to 111 °C"}
{"STRUCTURE_NOTATION": "COc1cc2ncnc(N3CCN(C(=O)Nc4ccc(Cl)c(Cl)c4)CC3)c2cc1OC", "ENDPOINT_VALUE": "221 to 222 °C"}
{"STRUCTURE_NOTATION": "N#Cc1ccc(NC(=O)N2CCN(c3ncnc4cc5c(cc34)OCCO5)CC2)cc1", "ENDPOINT_VALUE": "246 to 247 °C"}
{"STRUCTURE_NOTATION": "CCCn1c(=O)n(CCC)c2cc3c(N4CCN(C(=O)Nc5ccc(Oc6ccccc6)cc5)CC4)ncnc3cc21", "ENDPOINT_VALUE": "179 to 180 °C"}
{"STRUCTURE_NOTATION": "CC(=O)c1ccc(NC(=O)N2CCN(c3ncnc4c(Cl)cccc34)CC2)cc1", "ENDPOINT_VALUE": "208 to 209 °C"}
{"STRUCTURE_NOTATION": "COC(=O)c1scc(C)c1NC(=S)N1CCN(c2ncnc3cc(OC)c(OC)cc23)CC1", "ENDPOINT_VALUE": "113 to 116 °C"}
{"STRUCTURE_NOTATION": "COc1cc2ncnc(N3CCN(C(=O)Nc4cc(OC)c(OC)c(OC)c4)CC3)c2cc1OC", "ENDPOINT_VALUE": "198 to 199 °C"}
{"STRUCTURE_NOTATION": "COc1cc2ncnc(N3CCN(C(=O)Nc4ccc(Cl)cc4Cl)CC3)c2cc1OC", "ENDPOINT_VALUE": "166 to 167 °C"}
{"STRUCTURE_NOTATION": "COc1cc2ncnc(N3CCN(C(=O)Nc4ccc(F)c(Cl)c4)CC3)c2cc1OC", "ENDPOINT_VALUE": "200 to 201 °C"}
{"STRUCTURE_NOTATION": "COc1cc2ncnc(N3CCN(C(=S)NCc4ccc(C(F)(F)F)cc4)CC3)c2cc1OC", "ENDPOINT_VALUE": "216 to 217 °C"}
{"STRUCTURE_NOTATION": "COc1cc2ncnc(N3CCN(C(=S)Nc4cccc(Br)c4)CC3)c2cc1OC", "ENDPOINT_VALUE": "220 to 222 °C"}
{"STRUCTURE_NOTATION": "COc1cc2ncnc(N3CCN(C(=S)NCc4ccc(C(C)C)cc4)CC3)c2cc1OC", "ENDPOINT_VALUE": "178 to 179 °C"}
{"STRUCTURE_NOTATION": "CC(C)Oc1ccc2c(N3CCN(C(=O)Nc4ccc(Oc5ccccc5)cc4)CC3)ncnc2c1", "ENDPOINT_VALUE": "181 to 182 °C"}
{"STRUCTURE_NOTATION": "COc1cc2ncnc(N3CCN(C(=S)NCc4ccncc4)CC3)c2cc1OC", "ENDPOINT_VALUE": "236 to 239 °C"}
{"STRUCTURE_NOTATION": "O=C(Nc1ccc(Oc2ccccc2)cc1)N1CCN(c2ncnc3ccc(Cl)cc23)CC1", "ENDPOINT_VALUE": "116 to 120 °C"}
{"STRUCTURE_NOTATION": "COc1cc2ncnc(N3CCN(C(=S)NCCN4CCOCC4)CC3)c2cc1OC", "ENDPOINT_VALUE": "79 to 81 °C"}
{"STRUCTURE_NOTATION": "O=C(Nc1ccc(Oc2ccccc2)cc1)N1CCN(c2ncnc3c(Cl)cc(Cl)cc23)CC1", "ENDPOINT_VALUE": "195 to 196 °C"}
{"STRUCTURE_NOTATION": "CCOc1cc2ncnc(N3CCN(C(=S)NCc4ccccc4)CC3)c2cc1OC", "ENDPOINT_VALUE": "168 to 169 °C"}
{"STRUCTURE_NOTATION": "S=C(NCc1ccccc1)N1CCN(c2ccnc3cc(Cl)ccc23)CC1", "ENDPOINT_VALUE": "84 to 86 °C"}
{"STRUCTURE_NOTATION": "COc1cc2nncc(N3CCN(C(=O)Nc4ccc(Oc5ccccc5)cc4)CC3)c2cc1OC", "ENDPOINT_VALUE": "165 to 167 °C"}
{"STRUCTURE_NOTATION": "O=C(Nc1ccc(Oc2ccccc2)cc1)N1CCN(c2nccc3ccccc23)CC1", "ENDPOINT_VALUE": "122 to 123 °C"}
{"STRUCTURE_NOTATION": "CCOc1cc2ncnc(N3CCN(C(=O)Nc4ccc(Oc5ccccc5)cc4)CC3)c2cc1OC", "ENDPOINT_VALUE": "174 to 175 °C"}
{"STRUCTURE_NOTATION": "COc1cc2ncnc(N3CCN(C(=O)Nc4cccc(C(F)(F)F)c4)CC3)c2cc1OC", "ENDPOINT_VALUE": "180 to 181 °C"}
{"STRUCTURE_NOTATION": "COc1cc2ncnc(N3CCN(C(=O)NCc4ccc(C(F)(F)F)cc4)CC3)c2cc1OC", "ENDPOINT_VALUE": "195 to 197 °C"}
{"STRUCTURE_NOTATION": "COc1cc2ncnc(N3CCN(C(=O)Nc4cccc(SC)c4)CC3)c2cc1OC", "ENDPOINT_VALUE": "180 to 181 °C"}
{"STRUCTURE_NOTATION": "CCOC(=O)c1cccc(NC(=O)N2CCN(c3ncnc4cc(OC)c(OC)cc34)CC2)c1", "ENDPOINT_VALUE": "187 to 188 °C"}
